# tested-on: human recombinant dopamine D4.2 receptor (Homo sapiens, UniProt P21917, DEL265-296)
# Construct: expressed in transfected cells; membranes
# Sequence (P21917 with tags, fused parts or gaps DEL265-296): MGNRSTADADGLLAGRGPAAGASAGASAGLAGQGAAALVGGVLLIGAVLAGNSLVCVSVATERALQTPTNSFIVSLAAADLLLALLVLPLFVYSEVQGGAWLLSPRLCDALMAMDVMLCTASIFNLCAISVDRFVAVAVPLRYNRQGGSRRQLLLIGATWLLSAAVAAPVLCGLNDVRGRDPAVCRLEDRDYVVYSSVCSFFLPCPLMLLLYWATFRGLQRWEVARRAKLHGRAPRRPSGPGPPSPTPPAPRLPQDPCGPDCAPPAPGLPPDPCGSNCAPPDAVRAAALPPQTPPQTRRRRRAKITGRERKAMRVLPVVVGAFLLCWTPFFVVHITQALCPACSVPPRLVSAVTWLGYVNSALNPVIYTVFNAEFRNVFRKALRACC
# procedure-text: Receptor binding assay, D4.2 dopamine receptor ([3H]spiperone competition)
Counter-ions that a name gives are not always drawn.
endpoint-name: Ki (nM)
Express the result in nM but write the number alone.

Below: 3 compounds and their reported Ki.
>>> print(df.to_string())
                                   compound  result_units  test_value
0  Cc1ccc(OCCCNCCOc2ccccc2)cc1 [Example 3f, hydrochloride]            nM         2.7
1             N#Cc1ccc(OCCNCCCOc2ccccc2)cc1            nM        10.7
2  OC(CNCCOc1ccc(Cl)cc1)COc1ccccc1 (stereo not drawn) [Example 16h]            nM         2.1

// Cc1ccc(SCCNCCCOc2ccccc2)cc1 [Example 4d, hydrochloride] : Ki value = 30

// CCOc1ccc(OCCNCCCOc2ccccc2)cc1 [Example 2c, hydrochloride] : Ki value = 11.9

// Fc1ccc(OCCCNCCOc2ccccc2)cc1 [Example 4, hydrochloride] : Ki value = 1.2

// Clc1ccc(SCCNCCCOc2ccccc2)cc1 [Example 4e, hydrochloride] : Ki value = 33.1

// CC(C)(C)c1ccc(OCCNCCCOc2ccccc2)cc1 [Example 2b, hydrochloride] : Ki value = 20.9

----------
The entries below are paired with their reported Ki.
# tested-on: human recombinant dopamine D4.2 receptor (Homo sapiens, UniProt P21917, DEL265-296)
# Construct: expressed in transfected cells; membranes
# Sequence (P21917 with tags, fused parts or gaps DEL265-296): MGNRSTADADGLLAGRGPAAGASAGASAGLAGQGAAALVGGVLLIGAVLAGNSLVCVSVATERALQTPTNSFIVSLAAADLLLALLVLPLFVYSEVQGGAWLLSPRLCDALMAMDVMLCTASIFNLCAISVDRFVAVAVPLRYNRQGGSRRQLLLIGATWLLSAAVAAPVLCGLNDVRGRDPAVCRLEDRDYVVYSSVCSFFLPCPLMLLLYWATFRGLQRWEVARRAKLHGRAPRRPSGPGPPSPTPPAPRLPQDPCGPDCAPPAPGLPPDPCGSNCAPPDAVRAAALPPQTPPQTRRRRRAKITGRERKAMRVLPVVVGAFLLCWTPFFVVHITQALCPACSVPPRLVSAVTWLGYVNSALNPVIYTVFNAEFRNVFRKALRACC
# procedure-text: Receptor binding assay, D4.2 dopamine receptor ([3H]spiperone competition)
Counter-ions that a name gives are not always drawn.
Express the result in nM but write the number alone.

Field Ki (human recombinant dopamine D4.2 receptor (Homo sapiens, UniProt P21917, DEL265-296)), entry Cc1ccc(OCCNCCOc2ccccc2)cc1 [Example 6d, hydrochloride] : 103

Field Ki (human recombinant dopamine D4.2 receptor (Homo sapiens, UniProt P21917, DEL265-296)), entry Cc1ccc(OCCCNCCCOc2ccc(C)cc2)cc1 [Example 4b, hydrochloride] : 136

Field Ki (human recombinant dopamine D4.2 receptor (Homo sapiens, UniProt P21917, DEL265-296)), entry Cc1ccc(OCCNCCCOc2ccc(F)cc2)cc1 [Example 4c, hydrochloride] : 0.96

Field Ki (human recombinant dopamine D4.2 receptor (Homo sapiens, UniProt P21917, DEL265-296)), entry Cc1ccc(OCCNCCCSc2ccccc2)cc1 [Example 4g, hydrochloride] : 1.2

Field Ki (human recombinant dopamine D4.2 receptor (Homo sapiens, UniProt P21917, DEL265-296)), entry Cc1ccc(OCCNCCCOc2ccccc2)cc1 [Example 2, hydrochloride] : 0.2

Field Ki (human recombinant dopamine D4.2 receptor (Homo sapiens, UniProt P21917, DEL265-296)), entry Clc1ccc(OCCNCCCOc2ccc(Br)cc2)cc1 [Example 3g, hydrochloride] : 37.8

Field Ki (human recombinant dopamine D4.2 receptor (Homo sapiens, UniProt P21917, DEL265-296)), entry Cc1ccc(OCCNCC(O)COc2ccccc2)cc1 (stereo not shown) [Example 16g] : 1.3

Field Ki (human recombinant dopamine D4.2 receptor (Homo sapiens, UniProt P21917, DEL265-296)), entry Oc1ccc(OCCNCCCOc2ccccc2)cc1 [Example 11, hydrobromide] : 3.1

Field Ki (human recombinant dopamine D4.2 receptor (Homo sapiens, UniProt P21917, DEL265-296)), entry Cc1ccc(CCCNCCCOc2ccccc2)cc1 [Example 5, hydrochloride] : 4.7

Field Ki (human recombinant dopamine D4.2 receptor (Homo sapiens, UniProt P21917, DEL265-296)), entry COC(=O)c1ccc(OCCNCCCOc2ccccc2)cc1 [Example 6a] : 10.9

These measurements were taken from patent US6051605A.
